# Tested on: Escherichia coli TOP10
# assay-name: shrunken log2 fold change of peptide-encoding DNA abundance (4.5 h post-induction vs induction); higher = less antimicrobial activity (less host growth inhibition)
# cond: time post-induction: 4.5 h; library: site-saturation at positions 5, 18, 19, 20
param class (str): category from shrunken log2 fold change; see ranges bottom range = under -0.1, center range = from -0.1 up to 0.06, top range = 0.06 and over

RRIRTRPPRLPRPRPRPTSTPRP : center range
RRIRYRPPRLPRPRPRPDYWPRP : bottom range
RRIRSRPPRLPRPRPRPVLQPRP : top range
RRIRSRPPRLPRPRPRPEFYPRP : bottom range
RRIRTRPPRLPRPRPRPLMYPRP : bottom range
RRIRHRPPRLPRPRPRPKAFPRP : center range
RRIRSRPPRLPRPRPRPEGAPRP : top range
RRIRPRPPRLPRPRPRPTWTPRP : top range

Moving on to another sequence below.
Into which category would you place RRIRGRPPRLPRPRPRPCSKPRP ?
top range

###

# System: Escherichia coli TOP10
# assay-name: shrunken log2 fold change of peptide-encoding DNA abundance (4.5 h post-induction vs induction); higher = less antimicrobial activity (less host growth inhibition)
# cond: time post-induction: 4.5 h; library: site-saturation at positions 5, 18, 19, 20
Measured shrunken log2 fold change, listed per entry for reference.
Keep the answer to the number alone.

RRIRLRPPRLPRPRPRPFWAPRP : 0.0214
RRIRQRPPRLPRPRPRPTVDPRP : 0.349
RRIRIRPPRLPRPRPRPGWQPRP : 0.449
RRIRQRPPRLPRPRPRPFMRPRP : -0.0303
RRIRIRPPRLPRPRPRPLPFPRP : -1.01

Escherichia coli TOP10 assay, sequence RRIRDRPPRLPRPRPRPVLVPRP , recorded shrunken log2 fold change = 0.0945

Escherichia coli TOP10 assay, sequence RRIRRRPPRLPRPRPRPHWRPRP , recorded shrunken log2 fold change = 0.0155

Escherichia coli TOP10 assay, sequence RRIRDRPPRLPRPRPRPWIMPRP , recorded shrunken log2 fold change = -0.0114

###

# Test system: Escherichia coli TOP10;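 also: peptides expressed intracellularly from a pBAD plasmid library in pooled LB shake-flask culture, induced with 0.3% L-arabinose, DNA abundance read by NGS, three biological replicates, DESeq2 with apeglm shrinkage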
# assay-name: shrunken log2 fold change of peptide-encoding DNA abundance (4.5 h post-induction vs induction); higher = less antimicrobial activity (less host growth inhibition)
# cond: time post-induction: 4.5 h; library: site-saturation at positions 5, 18, 19, 20
Label false (0) if shrunken log2 fold change falls below 0.2; label true (1) in every other case.

RRIRFRPPRLPRPRPRPKAHPRP : false (0)
RRIRRRPPRLPRPRPRPPHYPRP : true (1)
RRIRPRPPRLPRPRPRPIFMPRP : false (0)
RRIRRRPPRLPRPRPRPRSGPRP : true (1)
RRIRHRPPRLPRPRPRPGNTPRP : false (0)
RRIRRRPPRLPRPRPRPRKCPRP : true (1)
RRIRMRPPRLPRPRPRPKFDPRP : true (1)
RRIRARPPRLPRPRPRPPGVPRP : false (0)
RRIRIRPPRLPRPRPRPSDGPRP : false (0)
RRIRIRPPRLPRPRPRPCNPPRP : false (0)

Determine whether measured shrunken log2 fold change meets or exceeds 0.2 for RRIRYRPPRLPRPRPRPAAWPRP
false (0)

Determine whether measured shrunken log2 fold change meets or exceeds 0.2 for RRIRMRPPRLPRPRPRPIYDPRP
false (0)

Determine whether measured shrunken log2 fold change meets or exceeds 0.2 for RRIRGRPPRLPRPRPRPEDIPRP
false (0)

Determine whether measured shrunken log2 fold change meets or exceeds 0.2 for RRIRMRPPRLPRPRPRPNESPRP
true (1)

Determine whether measured shrunken log2 fold change meets or exceeds 0.2 for RRIRVRPPRLPRPRPRPPPVPRP
true (1)
